Where these numbers come from: the supplement of paper PMC7125110

B1: glmS ribozyme (parent)
chain: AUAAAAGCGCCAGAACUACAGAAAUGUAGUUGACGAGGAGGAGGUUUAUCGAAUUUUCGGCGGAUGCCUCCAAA

variants of: B1; assay: self-cleavage kobs at 40 uM GlcN6P; higher = faster cleavage; RNA array; conditions: with glucosamine-6-phosphate
This sample holds only a part of the variants without activity.
test-readout: self-cleavage kobs at 40 uM GlcN6P

Example entries and their recorded answers appear below.
AUAAAAGCGCCCGAACUACAGAAAUGUAGUUGACGAGGAGGAGGUUUAUCGAGUUUUCGGCGGAUGCCUCCAAA : 0.000585 s⁻¹
AUAAAAGCGCCAGAACUACAGAAAUGUAGUUGACGAGGAGGAGGUUUCUCGAAUUUUCGGAGGAUGCCUCCAAA : < 1e-05 s⁻¹
AUAAAAGCGCGAGAACUACAGAAAUGUAGUUGAAGAGGAGGAGGUUUAUCGAAUUUUCGGCGGCUGCCUCCAAA : < 1e-05 s⁻¹
AUAAAAGAGCCAGAACUACAGAAAUGUAGUUGACGAGGAGGAGGUUGAUCGAAUUUUCGGCGGAUGCCUCCAAA : < 1e-05 s⁻¹
AUAAAAUCGCCAGAACUACAGAAAUGUAGUUGACGAGGAGGAGGUUUUUCGAAUUUUCGCCGGAUGCCUCCAAA : < 1e-05 s⁻¹

Reported self-cleavage kobs at 40 uM GlcN6P of "AUAAAAGCGCCAGAACUACAGAAAUGUAGUUGACGAGAAGGAGGUUUUUCGAAUUUUCGGCGGAUGCCUCCAAA" : < 1e-05 s⁻¹

Reported self-cleavage kobs at 40 uM GlcN6P of "AUAAAAGCGCCAGAACUACAGAAAUGUAGUUGACGAGGAGGAGGUUUAUGGAAUUUUCGGAGGUUGCCUCCAAA" : 9.82e-05 s⁻¹

Reported self-cleavage kobs at 40 uM GlcN6P of "AUAAAAGCGCGAGAACUACAGAAAUGUAGUUGACGAGGAAGAAGUUUAUCGAAUUUUCGGCGGAUGCCUCCAAA" : < 1e-05 s⁻¹

Reported self-cleavage kobs at 40 uM GlcN6P of "AUAAAAGCGCCAGAACUACAGAAAUGUAGUUGACGAGGAGGAGGUUUUUCGAAUUUUCGGCGGCUGUCUCCAAA" : < 1e-05 s⁻¹

Reported self-cleavage kobs at 40 uM GlcN6P of "AUAAAAGCGCCAGAGCUACAGAAAUGUAAUUGACGAGGAGGAGGUUUAUCGAAUUUUCGGCGGAUGCCUCCAAA" : 0.000133 s⁻¹

Reported self-cleavage kobs at 40 uM GlcN6P of "AUAAAAGCGCCAGAACUACAGAAAUGUAGUGGACGAGGAGGAGGUUUAUCGAAGUUUCGGCGGAUGGAUGCAAA" : 4.46e-05 s⁻¹

Reported self-cleavage kobs at 40 uM GlcN6P of "AUAAAAGCGCCAGAAUUACAGAAAUGUAGUUGACGAGGAGGAGGUGUAUCGAAUUUUCGGCGGAUGCCUCCAAA" : 0.00014 s⁻¹

Reported self-cleavage kobs at 40 uM GlcN6P of "AUAAAAGCGCCAGAACUACAGAAAUGUAGUUGACGAGGAGGAGCUUUAUCAACUUUUCGGCGGAUGCCUCCAAA" : < 1e-05 s⁻¹

Reported self-cleavage kobs at 40 uM GlcN6P of "AUAAAGGCGCCAGAACUACAGAAAUGUAGUUGACGAGGAUGAGGUUUAUCGGAUUUUCGGCGGAGGCCUCCAAA" : < 1e-05 s⁻¹

Reported self-cleavage kobs at 40 uM GlcN6P of "AUAAAGGCGCCAGAACUACAGAAAUGUAGUUGCCGAGGAGGAGGUUUAUCGAAUUUUCGGCGGAUGCCUCCAAA" : < 1e-05 s⁻¹

Reported self-cleavage kobs at 40 uM GlcN6P of "AUAAAAGCGCCAGAACUACAGAAAUGUAGUUACCGAGGAGGAGGUUUAUCGAAUUUUCGGCGGAUGCCUCCAAA" : < 1e-05 s⁻¹

Reported self-cleavage kobs at 40 uM GlcN6P of "AUAAAAGCGCCAGAACUACAGAAAUGUAGUUGACGAGGAGGGGGUGUAUCGAAUUUUCGGCGGAUGCCUCCAAA" : 0.000254 s⁻¹
